pIC50: −log10 of the molar value.
System: 3',5'-cyclic-AMP phosphodiesterase 4B (Homo sapiens) | Read-out: pIC50 | Origin: multiple publications
Sequence (Q07343 whole entry): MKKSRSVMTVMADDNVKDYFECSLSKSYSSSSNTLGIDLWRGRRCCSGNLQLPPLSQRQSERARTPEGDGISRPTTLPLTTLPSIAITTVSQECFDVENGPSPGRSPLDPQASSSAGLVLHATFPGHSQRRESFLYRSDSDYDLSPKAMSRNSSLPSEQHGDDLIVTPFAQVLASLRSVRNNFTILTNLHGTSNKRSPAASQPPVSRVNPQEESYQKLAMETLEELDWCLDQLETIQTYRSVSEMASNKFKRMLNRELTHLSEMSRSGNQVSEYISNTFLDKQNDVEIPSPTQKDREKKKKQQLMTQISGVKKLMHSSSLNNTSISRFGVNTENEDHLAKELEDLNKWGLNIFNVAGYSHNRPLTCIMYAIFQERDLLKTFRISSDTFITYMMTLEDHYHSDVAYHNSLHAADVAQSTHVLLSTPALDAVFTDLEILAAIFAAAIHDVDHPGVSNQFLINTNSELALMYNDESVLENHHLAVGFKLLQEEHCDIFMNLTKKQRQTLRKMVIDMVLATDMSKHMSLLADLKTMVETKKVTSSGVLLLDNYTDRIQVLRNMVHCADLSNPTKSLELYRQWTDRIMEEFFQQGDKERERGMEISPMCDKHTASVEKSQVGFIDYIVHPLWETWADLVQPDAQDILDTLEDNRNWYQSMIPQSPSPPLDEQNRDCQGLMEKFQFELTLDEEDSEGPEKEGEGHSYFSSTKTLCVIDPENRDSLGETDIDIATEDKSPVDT
attribute-measured: pIC50

compound	pIC50
C=CCc1c(CCC)nc(-c2ccccc2)nc1Nc1ccc(C(=O)O)cc1	6.16
CCn1c(NC(C)C)nc2c(C3CCN(C(C)C)CC3)csc2c1=O	4.60
N#Cc1ccc2nc(NC(=O)c3ccc(OC(F)F)c(OCC4CC4)c3)sc2c1	8.89
CCn1c(NC2CCCC2)nc2c(-c3ccc(C(=O)OC)cc3)csc2c1=O	6.00

[I] CC1(C)CCc2c(Nc3c(Cl)cncc3Cl)nc3oc4c(NCc5cccnc5)ncnc4c3c2C1
[II] O=C(O)Cc1ccc(Nc2nc(-c3ccc(F)cc3)nc3c2SCCC3)cc1
API: POST /compare with I and II ; response names the item with higher pIC50. Let me know the label of the one you choose.
I
(I: 10.70, II: 6.92)

[1] Cc1nc(-c2ccccc2)nc(Nc2ccc(C(=O)O)cc2)c1C#N
[2] COc1ccc(-c2nc(C(=O)NCc3c(F)cccc3Cl)c([C@H](C)N)o2)c2ccc(C(F)(F)F)nc12
In terms of reported pIC50, does 1 or 2 have the smaller number? Output the label that corresponds to your choice.
1
(1: 6.92, 2: 10.52)
